Test system: HCT-116 colon
experiment description: NCI tumour cell line growth inhibition, 48 h; in the data active = GI50 below about 0.43 µM; inactive = the rest
Classes used: 1.0 (active), 0.0 (inactive)

compound=Cc1nc2cnc3cc(F)c(-c4ccc(Oc5ncccn5)cc4Cl)cc3c2n1[C@H]1CCN(C(=O)CO)C[C@@H]1F class_label=1.0
compound=CCCCCCC#Cc1ccccc1C#CCO class_label=0.0
compound=Cc1nc2sc(C(=O)Nc3cccc4ccccc34)c(N)c2cc1C(=O)/C=C/c1ccccc1 class_label=1.0
compound=C/C([O-])=C1\Cc2ccccc2C1=O.C/C([O-])=C1\Cc2ccccc2C1=O.CC[O-].CC[O-].[Ti+4] class_label=0.0
compound=CN(c1ccc(NC(=O)Nc2ccc(OC(F)(F)F)cc2)cc1)c1ccnc(Nc2cccc(S(N)(=O)=O)c2)n1 class_label=0.0
compound="CCc1cccc2c3c(sc12)C(c1ccc(Cl)cc1)C(C#N)=C(N)O3 (stereo not drawn)" class_label=1.0
compound=C=C(C)[C@@H]1CC[C@]2(C(=O)NCCNCCNCCN)CC[C@]3(C)[C@H](CC[C@@H]4[C@@]5(C)CC[C@H](O)C(C)(C)[C@@H]5CC[C@]43C)[C@@H]12 class_label=0.0
compound=COc1ccc(C(=O)/C=C/c2c(C(F)(F)F)nc3sccn23)cc1OC class_label=0.0
